Just for reference, the supplement of paper PMC6555819 is where these values come from.

Tested on: PPARg homodimer (NR concentration 180 nM)
Test: PBM binding z-score (relative to random genomic background probes); higher = stronger binding; sequences stand for … in GC…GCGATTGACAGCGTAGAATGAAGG
quantity: PBM binding z-score
# print the numeric value only

Enquiry: Which PBM binding z-score is listed for `GCTGCTAGGTCAGGTTGGTCAGCTTACGGGTACG` ?
Return: 0.591

Enquiry: Param item = `ACTAGTTGGTCAACTGAGGTCACACACAATTCGG` ; retrieve measured PBM binding z-score.
Return: 2.02

Enquiry: Value lookup for PBM binding z-score; key = `GGAACAAGGGCATTCGAGTTGATAGCATGGCGAT`
Return: 0.614

---

Test system: PXR:RXRa (NR concentration 270 nM, RXRa partner concentration 90 nM)
Assay: PBM binding z-score (relative to random genomic background probes); higher = stronger binding; sequences stand for … in GC…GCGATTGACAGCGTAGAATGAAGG
quantity: PBM binding z-score
Respond with the number and no other words.

Enquiry: Please give the measured PBM binding z-score for this sequence: `CGAAAGAGGGCATGAGTTGATAGCAAATGCCGAT`
Return: 0.604

Enquiry: Suppose we examine the sequence `ATTTCTAGGTAAGACTCAGTTCAGTGAAGAACGC` ; what PBM binding z-score value has been reported?
Return: 1.39

Enquiry: Requested field: PBM binding z-score. Item: `TCAATTAGTTGAAGGGCAACCGACGAGTCCGTTT`
Return: 0.533

Enquiry: Name the recorded PBM binding z-score for `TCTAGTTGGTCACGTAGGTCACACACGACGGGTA` .
Return: 2.27

Enquiry: Recorded PBM binding z-score of `ATCTCTAGGTAACTAGTTCAGTGAAAGAGAGGAC` , please.
Return: 0.527

Enquiry: Please give the measured PBM binding z-score for this sequence: `TCTAGCAGGCGAGAGGGTCACTCAAGAGGTACGG`
Return: 1.47

Enquiry: Fill in the blank: the reported PBM binding z-score of `CTTGCTAGGTCATGGTCAGCTAATCTACAGTATG` is ____.
Return: 1.45

Enquiry: What value of PBM binding z-score has been reported for the following sequence? `GCGACTGGGGCAAAGCAGGTTACCCTAAGGTTGG`
Return: 0.0911

Enquiry: # get_value(readout='PBM binding z-score', item= `GATACAGGGCCAAGGCCAGAGTACGCGTATTGAT` )
Return: -0.55

Enquiry: Which PBM binding z-score is listed for `ATCTCTAGGTAAAGTTAGTTCAGTGAATGCAAAT` ?
Return: 1.65

Enquiry: Entry under review: `TCATATAGGTAATACAGGTGCAAGTCGGCATCTA` . Reported PBM binding z-score?
Return: 1.07

Enquiry: Which PBM binding z-score is reported for this sequence? `CTACCAATGTGAACAAGGTCGTTGATTACTATTC`
Return: 1.99

Enquiry: Look up PBM binding z-score for this sequence: `GCTCCGAGGACAAGGTCAGAGCTTTGTCCGTAGA`
Return: 1.55

Enquiry: Can you share its PBM binding z-score? I mean this sequence: `CGTCCAAGGACAGAGAGGTCAGTGAATGCCGAGT`
Return: 3.01

Enquiry: Item under review: `GCTATCAGTTGAAAGGGCAACCGAATGATTCTCG` . Reported PBM binding z-score?
Return: 0.584

Enquiry: # input sequence: `CCTGTTAGGTCATGGTCAGCTAATCTACAGTATG` ; wanted: its PBM binding z-score
Return: 1.77

Enquiry: Endpoint output: PBM binding z-score of `ACTATTAGTTGACTTCGGGCAACCGATACGACGC` . Value?
Return: 0.138

Enquiry: May I ask what PBM binding z-score has been recorded for `TCATATAGGTAAACAGATGAAAGTCCGTAAGTTA` ?
Return: 0.869

Enquiry: Any idea what its PBM binding z-score is? The sequence is `ATACCACGGTGATCGTGAGGTCGTTGATACTAAC`
Return: 1.6

Enquiry: Quick one: PBM binding z-score for `CAGCCTAGGTCAGGGACAGTATAGGAGGAACGTT` ?
Return: 0.546

Enquiry: Could you share which PBM binding z-score value was measured for `CGTCCAAGGTCTATGCTAGGTCAGTGAAAGCATT` ?
Return: 0.421

Enquiry: What does the data say about its PBM binding z-score? Entry: `ATACCAAGGAGATCGTGAGGTCGTTGATACTAAC`
Return: 1.65

---

System: PXR homodimer (NR concentration 270 nM)
Test: PBM binding z-score (relative to random genomic background probes); higher = stronger binding; sequences stand for … in GC…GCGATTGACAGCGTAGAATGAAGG
Please respond with reported PBM binding z-score for every item in the list.
Just the number, please, no unit attached.

Enquiry: Form field: PBM binding z-score recorded for `CGTCCAAGGTCAGCAGGTAAGTGAAAGCGACGTG` with PXR homodimer (NR concentration 270 nM) (enter value)
Return: -0.0164

Enquiry: Give recorded PBM binding z-score with PXR homodimer (NR concentration 270 nM) for the following sequence: `TCTCAGAGGACACGAAAGGTCAGAGCTCGACATC`
Return: 0.423

Enquiry: So what PBM binding z-score did `TAGCCTAGGTCATTAAGGGGCCAGTATAGAAAGC` get with PXR homodimer (NR concentration 270 nM)?
Return: -0.202

Enquiry: Hi! What's the reported PBM binding z-score for `GCTTACGGGTCAAAGGTGATAGCATGAATAGAAT` on PXR homodimer (NR concentration 270 nM)?
Return: -0.0532

---

Tested on: LXRa homodimer (NR concentration 270 nM)
Assay: PBM binding z-score (relative to random genomic background probes); higher = stronger binding; sequences stand for … in GC…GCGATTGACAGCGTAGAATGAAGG
Decide using PBM binding z-score: a value greater than or equal to 0.4 is Yes, a smaller one is No.

Enquiry: Does the sequence `CAAACTAGGTCACCGGAAGGTCCAAGTCCGCATG` have recorded PBM binding z-score that is 0.4 or more?
Return: Yes

Enquiry: Is reported PBM binding z-score greater than or equal to 0.4 here: `CAAACTAGGTCACAGAGGTCAAAGACCGTGCGTA`
Return: Yes

Enquiry: Confirm if PBM binding z-score reported for the sequence `AATACAGGGTCATCGTAGTCCAGAGTACGCACAG` is 0.4 or above.
Return: Yes

Enquiry: Given the entry `GCTATTAGTTGAAAGGGCAACCGCATGATTCTCG` , answer whether its PBM binding z-score meets or surpasses 0.4.
Return: No

Enquiry: Determine whether this sequence has PBM binding z-score no lower than 0.4: `ACTATTAGTTGACTGAGGGCAACCGATACGACGC`
Return: No

Enquiry: # bool: PBM binding z-score of `ATGTGTAGGTTATCGGGTCATTCAGTTTGCGCAT` >= 0.4
Return: Yes

Enquiry: Item `CATACTGGGCCACGAAAGGTCATTGATTCAGTGA` with PBM binding z-score of 0.4 or above?
Return: Yes

Enquiry: Textbook exercise: given the entry `GGAACGAGGGCATTCGAGTTGATAACATGGCGAT` , state whether its PBM binding z-score is greater than or equal to 0.4.
Return: No

Enquiry: // inclusive: PBM binding z-score at least 0.4? input: `GATACAGGGTCAGCTAGATGCCAGAGTATGGAAA`
Return: No

Enquiry: Does PBM binding z-score meet or surpass 0.4 for `CGTCCAAAGTCAGCAGGTCAGTGAAAGCGACGTG` ?
Return: No

Enquiry: PBM binding z-score >= 0.4 for `CGAACTAGGTCACGAAAGGTCAAAGTCGAATGAC` ?
Return: Yes

Enquiry: Determine whether this sequence has PBM binding z-score no lower than 0.4: `CCGTCTGGGGCAAAGGTTACCATACTCAGTACGA`
Return: No

Enquiry: Determine whether this sequence has PBM binding z-score no lower than 0.4: `ATCTCTAGGTAACAAAGTTCAGTGAATGCCGAAC`
Return: Yes

Enquiry: Hello, I need to know if `TAGCCTGGGTCATTCAGGGGCCAGTATAGAAAGC` has measured PBM binding z-score not below 0.4. Thanks!
Return: No

Enquiry: Entry `CCTAGCAGGCCAGGGTCAATCAAGCATTTCGCTT` : is its PBM binding z-score no less than 0.4?
Return: No

Enquiry: Threshold query (PBM binding z-score >= 0.4) on `GCTCAGAGGACAAGGTCAGAGCTTTGTCCGTAGA`
Return: No

Enquiry: Threshold query (PBM binding z-score >= 0.4) on `TCTCGGAGGACACGAAAGGCCAGAGCTCGACATC`
Return: No

Enquiry: Could you tell me if the measured PBM binding z-score of `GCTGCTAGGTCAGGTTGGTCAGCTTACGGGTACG` reaches 0.4 or more?
Return: No

Enquiry: hey, is PBM binding z-score for this one >= 0.4? `TAAACAGGGTCAAAGGCCAGAGTACGAATGTCGA`
Return: Yes

Enquiry: Please check the record `AGTCAAAGTTCACAAGGTAACGTAAGATTCAGCT` and state if its PBM binding z-score is at or above 0.4.
Return: Yes

Enquiry: Confirm if PBM binding z-score reported for the sequence `CCTCCAAGGTCAAGGTCAGTGAAAGAGACTCGAA` is 0.4 or above.
Return: Yes

Enquiry: # bool: PBM binding z-score of `TCTATTGGTTGAAGGGCAACCGACGAGTCCGTTT` >= 0.4
Return: No

Enquiry: // inclusive: PBM binding z-score at least 0.4? input: `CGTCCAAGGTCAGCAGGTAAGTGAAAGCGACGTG`
Return: No

Enquiry: Say whether `TGTCAAAGTTCAAGGGTAACGTAAGTATCCACAC` shows PBM binding z-score of 0.4 or more.
Return: Yes
